Test system: 266295-075-R-J1-PDC spheroid viability;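 further: spheroids exposed to compounds for seven days before readout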
experiment notes: Anticancer human tumor 266295-075-R-J1-PDC patient-derived head and neck squamous carcinoma cell line growth inhibition [POLQ]
conditions used: second compound 0.1 µM; first compound 0.316 µM; hits give low values; spheroids with HUVEC and MSC
Give measured viability, T/C for each item. Keep answers brief.
Numbers only, in %.

[[record]]
compound = "CC(C)n1c(=O)n(C)c2cnc3cc(F)c(-c4ccc(OCCCN5CCCCC5)nc4)cc3c21 + COC1C(OC(N)=O)C(O)C(Oc2ccc3c(O)c(NC(=O)c4ccc(O)c(CC=C(C)C)c4)c(=O)oc3c2C)OC1(C)C"
metric_name = "viability, T/C"
reported_measurement = 90.3


I'm hoping you can list viability, T/C for every compound here, please.
1. C=CC(=O)N1CCN(c2nc(=O)n(-c3c(C)ccnc3C(C)C)c3nc(-c4c(O)cccc4F)c(F)cc23)C(C)C1 (stereo not given) + COC1C(OC(N)=O)C(O)C(Oc2ccc3c(O)c(NC(=O)c4ccc(O)c(CC=C(C)C)c4)c(=O)oc3c2C)OC1(C)C
2. O=C(Nc1ccc(O)c(NS(=O)(=O)c2ccc(F)cc2)c1)c1ccc(-c2ccccc2)cc1 + COC1C(OC(N)=O)C(O)C(Oc2ccc3c(O)c(NC(=O)c4ccc(O)c(CC=C(C)C)c4)c(=O)oc3c2C)OC1(C)C
3. COc1cccc(OCCCN)c1-c1cc(Nc2cnc(C#N)cn2)n[nH]1 + Nc1ccc(C#CCN(C(=O)Cc2ncc(C(F)(F)F)cc2C(F)(F)F)c2ccc(F)cc2)nn1
4. COc1cccc(OCCCN)c1-c1cc(Nc2cnc(C#N)cn2)n[nH]1 + Cc1cccc(N(C)C(=O)C2C(O)CCN2c2nc(C)cc(C(F)(F)F)c2C#N)c1
5. C=CCn1c(=O)c2cnc(Nc3ccc(N4CCN(C)CC4)cc3)nc2n1-c1cccc(C(C)(C)O)n1 + COC1C(OC(N)=O)C(O)C(Oc2ccc3c(O)c(NC(=O)c4ccc(O)c(CC=C(C)C)c4)c(=O)oc3c2C)OC1(C)C
6. COc1cc(C2c3cc4c(cc3C(OC3OC5COC(C)OC5C(O)C3O)C3COC(=O)C23)OCO4)cc(OC)c1O (stereo not given) + Cc1cccc(N(C)C(=O)C2C(O)CCN2c2nc(C)cc(C(F)(F)F)c2C#N)c1

Result block:
[94, 109, 72, 79.1, 77.2, 72.5]

I'm hoping you can list viability, T/C for every compound here, please.
1. C=CC(=O)N1CCN(c2nc(=O)n(-c3c(C)ccnc3C(C)C)c3nc(-c4c(O)cccc4F)c(F)cc23)C(C)C1 (stereo not given) + Cc1cccc(N(C)C(=O)C2C(O)CCN2c2nc(C)cc(C(F)(F)F)c2C#N)c1
2. C#Cc1c(F)ccc2cc(O)cc(-c3ncc4c(N5CC6CCC(C5)N6)nc(OCC56CCCN5CC(F)C6)nc4c3F)c12 (stereo not given) + COC1C(OC(N)=O)C(O)C(Oc2ccc3c(O)c(NC(=O)c4ccc(O)c(CC=C(C)C)c4)c(=O)oc3c2C)OC1(C)C
3. CC(C)n1c(=O)n(C)c2cnc3cc(F)c(-c4ccc(OCCCN5CCCCC5)nc4)cc3c21 + Cc1cccc(N(C)C(=O)C2C(O)CCN2c2nc(C)cc(C(F)(F)F)c2C#N)c1

Result block:
96.2
74.9
98.9
